Cited source for all entries: paper PMC9482650

target: CASK, O14936; assay: holdup assay; design: key: below the threshold = too weak to quantify, mostly under pKd 3.1 to 4; conditions: plain residues with an end cap or a label only (N-terminal biotin on a linker: ttds)
Sequence (O14936 487-570): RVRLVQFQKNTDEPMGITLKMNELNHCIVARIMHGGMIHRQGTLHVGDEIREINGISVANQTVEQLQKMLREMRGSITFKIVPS
readout.name: pKd

Examples with answers:
{"columns": ["binder", "readout.name", "result"],
 "data": [
  ["GGPKEEESPV [SLC16A1, P53985]", "pKd", "below the threshold"],
  ["QFQYAKESYI [TAGAP, Q8N103]", "pKd", "below the threshold"],
  ["RTRQRNETQV [HPV51-E6, P26554]", "pKd", "below the threshold"],
  ["DPRNTQTSQI [ABRAXAS2, Q15018]", "pKd", 3.55]
]}

Kindly review the next binder as well.
Given item LCALPKVTTV [AGMAT, Q9BSE5] , the value recorded as its pKd is below the threshold
